# Activity per entry
- Tested system: Arachidonate 5-lipoxygenase-activating protein (Homo sapiens)
- Sequence (whole entry): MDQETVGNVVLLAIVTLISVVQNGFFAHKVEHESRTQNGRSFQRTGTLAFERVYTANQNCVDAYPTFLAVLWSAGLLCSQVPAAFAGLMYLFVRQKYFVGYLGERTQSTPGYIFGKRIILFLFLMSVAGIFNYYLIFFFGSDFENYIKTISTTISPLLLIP
- Assay notes: Inhibition of FLAP in human neutrophils assessed as suppression of A23187-stimulated 5-LO product formation using arachidonic acid as substrate measured as residual activity at 1 uM preincubated for 15 mins followed by A23187/arachidonic acid addition after 10 mins RP-HPLC/UV analysis relative to control
The response must be a number in % with no trailing unit.

- CCC#CCOc1ccc2c(c1)nc(C(C)c1ccc(CC(C)C)cc1)n2Cc1ccccc1C(F)(F)F (stereo unspecified): 55.6
- CC(C)Cc1ccc(C(C)c2nc3cc(OCc4ccc(OC(F)(F)F)cc4)ccc3n2Cc2ccccc2C(F)(F)F)cc1 (stereo unspecified): 99.9
- CC(C)Cc1ccc(C(C)c2nc3cc(OCc4ccccc4C#N)ccc3n2Cc2ccccc2Cl)cc1 (stereo unspecified): 39.9
- CC(C)Cc1ccc(C(C)c2nc3cc(OCc4ccc(C(F)(F)F)cc4)ccc3n2Cc2ccccc2C(F)(F)F)cc1 (stereo unspecified): 91.7
- CC(C)Cc1ccc(C(C)c2nc3cc(OCc4ccccc4C#N)ccc3n2Cc2ccccc2C(F)(F)F)cc1 (stereo unspecified): 65.2

As a next step, examine the molecule that follows.
input: Lab note: need Activity for CC(C)=CCOc1ccc2c(c1)nc(C(C)c1ccc(CC(C)C)cc1)n2Cc1ccccc1C(F)(F)F (stereo unspecified) on Arachidonate 5-lipoxygenase-activating protein (Homo sapiens), anyone have it?
output: 60.2
